Target: Pim-1 (Homo sapiens (Human), UniProt P11309)
Sequence (P11309 whole entry): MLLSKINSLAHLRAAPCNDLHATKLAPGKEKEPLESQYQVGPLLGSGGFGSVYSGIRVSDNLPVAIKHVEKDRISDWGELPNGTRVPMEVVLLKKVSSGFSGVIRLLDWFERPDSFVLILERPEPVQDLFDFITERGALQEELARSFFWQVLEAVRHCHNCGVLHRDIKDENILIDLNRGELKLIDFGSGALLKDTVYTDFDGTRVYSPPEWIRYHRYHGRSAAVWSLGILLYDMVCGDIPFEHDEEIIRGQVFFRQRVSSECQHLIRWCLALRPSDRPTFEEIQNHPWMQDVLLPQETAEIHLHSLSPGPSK
Assay: Pim-Mn enzyme assay (HTRF, 384-well), Pim-1
Assay type: biochemical
Conditions: Pim-1 enzyme 5 pM, ATP 1.5 μM, BAD (S112) 0.5 μM, HTRF, 22-point curve; read-out: Pim-1-Mn IC50 IP
Measurement Label: pIC50
# reply with the number alone; pIC50 is -log10 of concentration in mol/L

Take a look at these entries with their results.
Molecule: Cc1nc2cccc(-c3cc4c(=O)[nH]cnc4[nH]3)c2nc1NC(C)(C)CO
pIC50: 8.29
//
Molecule: Cc1nc2ccc(F)c(-c3cc4c([nH]3)[C@H]([C@@H](C)O)NC4=O)c2nc1NC1CC1
pIC50: 8.80
//
Molecule: Cc1ccccc1-c1nc2c(-c3cc4c([nH]3)CCNC4=O)cccc2nc1C
pIC50: 7.28
//
Molecule: Cc1nc2cccc(-c3cc4c([nH]3)CCNC4=O)c2nc1OCC(C)(C)C
pIC50: 7.27
//
Molecule: Cc1nc2cccc(-c3cc(C(N)=O)n[nH]3)c2nc1NC(C)(C)C
pIC50: 7.67
//
Molecule: Cc1nc2cccc(-c3cc4c([nH]3)CCNC4=O)c2nc1-c1ccoc1C
pIC50: 7.51
//
Molecule: Cc1nc2ccc(F)c(-c3cc4c([nH]3)[C@H](C)NC4=O)c2nc1NC1(C)CC1
pIC50: 9.60
//
Molecule: Cc1nc2ccc(F)c(-c3cc4c([nH]3)[C@H]([C@H](C)O)NC4=O)c2nc1NC1CC1
pIC50: 8.15

Name the recorded pIC50 of the molecule listed here: Cc1nc2cccc(-c3cc4c([nH]3)CCNC4=O)c2nc1N[C@H]1CC[C@H]1N (racemic) 8.89

Name the recorded pIC50 of the molecule listed here: CC(=O)N1CCC(Nc2nc3c(-c4cc5c([nH]4)CCNC5=O)cccc3nc2C)CC1 7.86

Name the recorded pIC50 of the molecule listed here: CC(=O)N1CCc2[nH]c(-c3cccc4nc(C)c(NC(C)(C)C)nc34)cc2C1=O 7.45

Name the recorded pIC50 of the molecule listed here: C[C@H]1NC(=O)c2cc(-c3cccc4c(=O)n(C)c(NC5(C)CCC5)nc34)[nH]c21 10.13

Name the recorded pIC50 of the molecule listed here: CC(C)(C)Nc1nc2c(-c3cc4c([nH]3)CCNC4=O)cccc2nc1N1CC(O)C1 8.39

Name the recorded pIC50 of the molecule listed here: COC1=NCCc2[nH]c(-c3cccc4nc(C)c(NC(C)(C)C)nc34)cc21 8.03

Name the recorded pIC50 of the molecule listed here: Cc1nc2cccc(-c3cc4c([nH]3)CCCNC4=O)c2nc1NC(C)(C)C 8.58

Name the recorded pIC50 of the molecule listed here: Cn1cc(-c2ccc3ccc(F)c(-c4cc5c([nH]4)CCNC5=O)c3n2)cn1 7.04

Name the recorded pIC50 of the molecule listed here: CC(C)(C)Nc1nc2c(-c3cc4c([nH]3)CCNC4=O)cccc2nc1CO 8.67

----------
Target: Pim-1 (Homo sapiens (Human), UniProt P11309)
Assay: Pim enzyme assay (HTRF, 96-well), Pim-1
Format: biochemical
Conditions: full length recombinant Pim-1, biotinylated-BAD (S112) peptide, 10-point curve, 2 h RT, read-out: Pim-1 IC50 IP
Measurement Label: pIC50
# reply with the number alone; pIC50 is -log10 of concentration in mol/L

Take a look at these entries with their results.
Compound: CC1CNC(=O)c2cc(-c3cccc4ncc(Nc5ccccc5)nc34)[nH]c21 (racemic)
Assayed Target: Pim-1 (Homo sapiens (Human), UniProt P11309)
pIC50: 8.72

Compound: O=C1NCCn2cc(-c3cccc4ccc(Nc5ccccc5)nc34)cc21
Assayed Target: Pim-1 (Homo sapiens (Human), UniProt P11309)
pIC50: 8.17

Compound: O=C1NCCc2[nH]c(-c3cccc4cnc(C5(c6ccccc6)CC5)nc34)cc21
Assayed Target: Pim-1 (Homo sapiens (Human), UniProt P11309)
pIC50: 8.16

Name the recorded pIC50 of the compound listed here: Cc1cc2cccc(-c3cc4c([nH]3)CCNC4=O)c2nc1Nc1ccc(Br)cc1 8.35

Name the recorded pIC50 of the compound listed here: Cc1nc2cccc(-c3cc4c([nH]3)CCNC4=O)c2nc1NC(C)C 8.12

Name the recorded pIC50 of the compound listed here: CN1CCN(C(=O)c2ccc3cccc(-c4cc5c([nH]4)CCNC5=O)c3n2)CC1 6.64

Measured values drawn from patent US9394297B2 for this set.
